Reported MIC values follow for various compounds
tested on: Pseudomonas aeruginosa A3; assay: MIC, standard serial dilution method; format: cell-based; settings: Mueller-Hinton agar, 37° C
State the answer as a number, implicitly in µg/mL.

# Compound, MIC (µg/mL)
measured = [
    ("NCC[C@H](O)C(=O)N[C@@H]1C[C@H](N)[C@@H](O[C@H]2O[C@H](CN)[C@@H](O)C[C@H]2N)C(F)(F)[C@H]1O[C@H]1O[C@H](CO)[C@@H](O)[C@H](N)[C@H]1O [Compound 5FF-TOB-AHB]", 0.78),
    ("CN[C@@H]1[C@@H](O)[C@@H](O[C@@H]2[C@@H](O)[C@H](O[C@H]3O[C@H]([C@@H](C)NC)CC[C@H]3N)[C@@H](N)C[C@H]2N)OC[C@]1(C)O [Genta-C1, gentamicin C1, reference compound]", 0.78),
    ("CCN[C@@H]1C[C@H](N)[C@@H](O[C@H]2OC(CN)=CC[C@H]2N)[C@H](O)[C@H]1O[C@H]1OC[C@](C)(O)[C@H](NC)[C@H]1O [Netilmicin, netilmicin, reference compound]", 0.39),
    ("NC[C@H]1O[C@H](O[C@H]2[C@H](O)[C@@H](O[C@H]3O[C@H](CO)[C@@H](O)[C@H](N)[C@H]3O)[C@H](N)C[C@@H]2N)[C@H](O)[C@@H](O)[C@@H]1O [KMA, kanamycin A, reference compound]", 6.25),
]

MIC measured on NC[C@H]1O[C@H](O[C@@H]2[C@@H](N)C[C@@H](N)[C@H](O[C@H]3O[C@H](CO)[C@@H](O)[C@H](N)[C@H]3O)C2(F)F)[C@H](N)[C@@H](O)[C@@H]1O [Compound 5FF-KMB, 5-deoxy-5,5-difluorokanamycin B] = 3.12
